Hey, just so you know, these numbers are from ChEMBL document CHEMBL3433997.

target: Glucose transporter (Leishmania mexicana) (UniProt O61059); assay: ST_JUDE_LEISH: Cytotoxicity at 2uM final concentration against transgenic Leishmania Mexicana promastigotes LmGT2 that are glucose transport deficient and complemented with the L. Mexicana glucose transporter 2. Activity is measured by DNA content using SYBR green in vitro; format: functional
Entries and their measured inhibition follow.
Note: unit % is implicit; provide only the numeric part.

Sample answers from the record:
> print(dat)
                                   molecule                                measuredon  value
1  Cc1cc(N[C@@H](CC(C)C)C(=O)NCc2cccc(F)c2)nc(Nc2ccccc2)n1  Glucose transporter (Leishmania mexicana) (UniProt O61059)    1.1
2  Cc1sc2nc(CN3CCCC3)nc(-n3c(NCCO)nc4ccccc43)c2c1C  Glucose transporter (Leishmania mexicana) (UniProt O61059)    5.9

In: With Glucose transporter (Leishmania mexicana) (UniProt O61059) as the test system, provide measured inhibition for this molecule: CCNC(C)(C)CN(Cc1ccc(-c2ccc(C(F)(F)F)cc2)cc1)C(=O)Cn1c(CCc2cccc(F)c2F)nc(=O)c2ccccc21
Out: 2.34

In: Please tell me the measured inhibition for COc1ccc2nccc([C@@H](O)CN3CCC(NCc4cc5ccccc5nc4O)CC3)c2c1 ; system: Glucose transporter (Leishmania mexicana) (UniProt O61059).
Out: 2

In: Look up Glucose transporter (Leishmania mexicana) (UniProt O61059) data: inhibition of CCCN1CCN(Cc2ccc(-c3ccc(-c4nc5ccccc5[nH]4)s3)cc2)CC1 , then report it.
Out: 1.19

In: GET inhibition | system: Glucose transporter (Leishmania mexicana) (UniProt O61059) | item: CCc1ccc(NC(=O)c2ccc(CN3CCCN(Cc4cccc(O)c4)CC3)cc2)cc1
Out: 2.57

In: // output inhibition; input O=C(/C=C/c1ccc(Cl)c(Cl)c1)NCCCCCN1CCC(NC(=O)Nc2ccccc2F)CC1 ; system Glucose transporter (Leishmania mexicana) (UniProt O61059)
Out: -0.91

In: Tell me inhibition of CCc1ccc(CN2CCC(CNC(=O)c3cc(-c4cccc(F)c4)cs3)C2)cc1 (centres undefined) when tested on Glucose transporter (Leishmania mexicana) (UniProt O61059).
Out: 1.42

In: Param request: inhibition | system Glucose transporter (Leishmania mexicana) (UniProt O61059) | item O=C(/C=C/c1ccc(-c2nc3cc(F)c(F)cc3[nH]2)cc1)NCc1ccc(Cl)c(Cl)c1
Out: 1.96
